# targetDesc: human PPARα (Homo sapiens, UniProt Q07869)
# Construct: expressed in transfected cells; host or cells: COS-7
# Sequence (Q07869 239-466 limits assumed): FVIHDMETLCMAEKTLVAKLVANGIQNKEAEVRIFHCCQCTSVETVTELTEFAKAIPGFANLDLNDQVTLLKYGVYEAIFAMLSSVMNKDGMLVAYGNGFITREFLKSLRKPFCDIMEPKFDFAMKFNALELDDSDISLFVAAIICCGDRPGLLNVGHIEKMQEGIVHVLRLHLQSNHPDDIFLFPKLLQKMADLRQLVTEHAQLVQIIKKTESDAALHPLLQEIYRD
# testDetails: Transactivation assay (GAL4–hPPARα-LBD chimera, luciferase reporter, COS-7 cells)
# Type: cell-based
# conditionInfo: 100% = 1 µM GW7647, read-out: Efficacy, PPARα transactivation (% of the maximal response)
parameterMeasured: Emax
Dear colleague, please send the value followed by its unit.

## Input Fill in: Emax of O=C(O)CCCc1cc2cc(Cl)ccc2n1S(=O)(=O)c1ccc2ncsc2c1 is ___
## Output 13.3%

## Input Fill in: Emax of CCO[C@H](COc1ccc(C(F)(F)F)cc1)CSc1ccc(OCC(=O)O)c(C)c1 is ___
## Output 41%

## Input Fill in: Emax of CCO[C@@H](Cc1ccc(OCCn2c(C)ccc2-c2ccc(SC)cc2)cc1)C(=O)O is ___
## Output 56.4%

## Input Fill in: Emax of CCc1ccc(CCOc2ccc(CC3SC(=O)NC3=O)cc2)nc1 (centres unmarked) is ___
## Output 25.2%

## Input Fill in: Emax of CSc1ccc(C(=O)/C=C/c2cc(C)c(OC(C)(C)C(=O)O)c(C)c2)cc1 is ___
## Output 38.5%
